# systemName: MICA*004 on HCC1534 cells (human, UniProt Q29983 24-383); further: test concentration or dose not given here
# procedureText: cell-based or functional assay
endpointName: % Inhibition (%)
Quick note: give the figure in %, leave out the unit.

• 1D5 (m IgG2a, CHO) (antibody, V domains shown) VH: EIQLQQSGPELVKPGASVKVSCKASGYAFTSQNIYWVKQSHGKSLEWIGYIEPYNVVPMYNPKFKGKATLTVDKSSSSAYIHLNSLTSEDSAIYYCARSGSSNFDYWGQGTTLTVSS VL: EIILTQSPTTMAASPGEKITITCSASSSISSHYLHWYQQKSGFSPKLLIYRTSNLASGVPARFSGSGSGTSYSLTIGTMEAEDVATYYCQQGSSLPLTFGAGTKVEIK = 59
• 1D5v11 (antibody, IgG1, V domains shown, humanized variant of 1D5) VH: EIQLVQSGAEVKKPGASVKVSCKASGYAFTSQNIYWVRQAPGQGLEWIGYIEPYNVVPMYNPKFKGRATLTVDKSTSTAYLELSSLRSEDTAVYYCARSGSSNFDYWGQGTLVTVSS VL: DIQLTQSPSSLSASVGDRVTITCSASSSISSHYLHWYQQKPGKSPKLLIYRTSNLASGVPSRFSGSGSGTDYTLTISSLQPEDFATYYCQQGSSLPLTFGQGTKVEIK = 52
• 1D5v24 (antibody, IgG1, V domains shown, humanized variant of 1D5) VH: EVQLVQSGAEVKKPGASVKVSCKASGYAFTSQNIYWVRQAPGQGLEWIGYIEPYNVVPMYNPKFKGRVTITVDKSTSTAYLELSSLRSEDTAVYYCARSGSSNFDYWGQGTLVTVSS VL: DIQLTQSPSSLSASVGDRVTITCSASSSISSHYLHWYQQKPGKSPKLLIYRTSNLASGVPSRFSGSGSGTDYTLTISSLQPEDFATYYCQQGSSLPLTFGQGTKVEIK = 50

Q. Please report the recorded % Inhibition for 1D5v2 (antibody, IgG1, V domains shown, humanized variant of 1D5) VH: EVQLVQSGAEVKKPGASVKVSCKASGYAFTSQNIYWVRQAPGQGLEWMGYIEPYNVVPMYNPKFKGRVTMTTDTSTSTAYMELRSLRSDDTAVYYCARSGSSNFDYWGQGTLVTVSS VL: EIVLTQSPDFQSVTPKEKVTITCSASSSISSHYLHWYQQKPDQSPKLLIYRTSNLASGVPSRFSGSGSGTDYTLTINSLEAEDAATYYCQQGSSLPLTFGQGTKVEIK .
A. 38
